target: T1, Recombinant human IL-2 (human, UniProt P60568 21-153); assay: SPR (Biacore 4000), IgG captured on anti-human IgG Fc, rhIL-2 0.11-10 nM
T1 construct: also called rhIL-2; hIL-2
# Kd values compiled below
Output spec: scalar in nM, unitless text.

XPA.92.099 (antibody, V domains shown, Tested as purified full-length human IgG; also called mAb99; clone 99) VH: QVQLVESGGGLVKPGRSLRLSCAASGFTFNRYAMSWVRQAPGKGLEWVAMISFDGGNQYYTDSVSGRFTISRDNSKTTLFLQMDSLRTEDTAVYYCVRSPAGDWVAYFDYWGQGTLVTVSS VL: DIQMTQSPSSLSASIGDRVTIPCQASEDISNHLSWYQQKPGKAPKPLIFDASDLETGVPSRFSGSGSGTDFALTISSLRPDDFATYYCHQYHDYPSYTFGHGTKLEIKR; 0.044
XPA.92.041 (antibody, V domains shown, Tested as purified full-length human IgG) VH: EVQLVQSGAEVKKPGESLKISCKGSGYNFDTYWIGWVRQMPGRGLEWMGTIYPADSDTRYSPSFQGQVTTSADKSISTAYLQWGSLRASDTAMYYCARFSSSAYDIWGQGTMVTVSS VL: SYELTQPPSVSVSPGQTARITCSGDALPRQFAYWYQQKPGQAPVLVIYKDTERPSGIPERFSGSSSGTTVTLTISGVQAEDEADYYCQSADSSGTYHVFGGGTQLTVLG; 0.058
XPA.92.019 (antibody, V domains shown, Tested as purified full-length human IgG; also called mAb19) VH: EVQLVESGGGLVQPGRSLRLSCAASGFTFSYYGMHWVRQAPGKGLEWVADISNDGSNKYYADSVKGRFTISRDNSKTTLYLQMNSLRPEDTAVYYCATPYYDSSGLDYWGQGTLVTVSS VL: SYELTQPPSVSVSPGQTARITCSGDALPKRFAYWYQQKAGQAPVLVIYEDNKRPSGIPETLSGSSSGTTATLTISGAQEEDEADYYCYSTDNTGGLWVFGGGTKLTVLG; 0.0095

Proceeding to the next binder to report its Kd.
Challenge: I would be grateful if you could share the reported Kd for XPA.92.042 (antibody, V domains shown, Tested as purified full-length human IgG) VH: EVQLVQSGTEVKKAGDSLKISCKGSGYNFDTYWIGWVRQMPGRGLEWMGTIYPADSDTRYSPSFQGQVTMSADKSISTAYLQWGSLRASDTAMYYCARFSSSAYDIWGQGTMVTVSS VL: SYELTQPPSVSVSPGQTARITCSGDALPRKFAYWYQQKSGQAPVLVIYQDTKRPSGIPERFSGSSSGTTVTLTISDVQAEDDADYYCQSADRSDSYVFGAGTKLTVLG .
Response given: 0.028
